MEASUREMENT_TARGET: RSV F protein of subtype B (18537) on recombinant mKate-RSV (respiratory syncytial virus subtype B …, UniProt P13843 26-574)
TEST_METHOD_NOTES: cell-based or functional assay
MEASURED_QUANTITY: Neut IC50 subtype B (mg/L)
Supply the numeric figure in mg/L, leaving out any unit text.

Sample answers from the record:
{"BINDER": "ADI-18995 (antibody, V domains shown, full-length IgG; also called Antibody Number 343) VH: EVQLVESGPGLVKPSETLSLSCIVSGGSITSGDYYWSWLRQSPGKGLEWIGYIYHSGATFYTPSLRSRVTISTDTSKNQFSLRLSSVTAADTAVYYCASGPVGMATSNWFDPWGQGTLVTVSS VL: SYELTQPPSVSVAPGKTATITCGGDIIRTNSVNWYQQKPGQAPLLLIYYDSDRPSGIPERFSASNSGNTATLTISRVEAGDEADYYCQVWDSGTDYHVVFGGGTKLTVQ", "VALUE_OBSERVED": 0.125}
{"BINDER": "ADI-19016 (antibody, V domains shown) VH: QVQLVESGGGLVKPGGSLRLSCVASGFTFSSYAMNWVRQAPGKGLDWVSSISAGSNFIDDADSVKGRFTISRDNARNSLFLQMNSLRAEDTAVYYCARIGYSSAHHYQYYMDVWGTGTTVTVSS VL: QSVLTQPPSVSGAPGQRVTISCTGSSSNIGAGYDVHWYQDLPGTAPKLLIYGNTNRPSGVPDRFSGSKSGASASLVITGLQAEDEADYYCQSYDKSLSGGYVFGTGTKVTVL", "VALUE_OBSERVED": 0.092}
{"BINDER": "ADI-19000 (antibody, V domains shown, full-length IgG; also called Antibody Number 348) VH: EVQLVESGAEVKKPGASVKVSCKASGYTFTTYDINWVRQATGRGLEWMGWMTPDSGSTGYPQNFQGRVTMTRNTSISTAYMELSNLRSEDTAVYYCVQMDHCRSTSCSEGNWFDTWGQGTLVTVSS VL: QPGLTQPPSVSAAPRQRVTISCSGSSSNIGTNAVNWYQQLPGKAPKLLIYSDNLMPSGVSARFSGSKSGTSASLAISGLQSEDEADYYCAAWDDSLNVWVFGGGTKLTVL", "VALUE_OBSERVED": 0.129}

For record ADI-18991 (antibody, V domains shown) VH: EVQLVESGPGLVKPSETLSLSCIVSGDSITSNDYYWSWIRQSPGKGLEWIGYIYHSGATFYTPSLRSRVTISTDRSKNQFSLRLSSVTAADTAVYYCASGPVGMATSNWFDPWGQGTLVTVSS VL: QPVLTQPPSVSVAPGKTATLTCGGDIIRTNSVNWYQQKPGQAPVLIIYYDSDRPSGIPGRFSASNSGSAATLTISRVEAGDEADYYCQVWDSSTDYHVVFGGGTKLTVL the listed Neut IC50 subtype B is 0.228

For record ADI-19010 (antibody, V domains shown) VH: EVQLVESGGGLVKPGGSLRLSCAASGFTFSSYSMNWVRQAPGKGLEWVSSISSSSSYIYYADSVKGRFTISRDNAKNSLYLQMNSLRAEDTAVYYCARDVQYSGYDSGYYFDYWGQGTLVTVSS VL: QPVLTQPPSVSGAPGQRVTISCTGSSSNIGAGYDVHWYQQLPGTAPKLLIYGNSNRPSGVPDRFSGSKSGTSASLAITGLQAEDEADYYCQSYDSSLSALYVFGTGTKVTVL the listed Neut IC50 subtype B is 0.65

Each recorded value in this set is attributed to patent US20200223906A1.
